System: PC-3
Assay: Antiproliferative activity against human PC3 cells at 1 uM after 120 hrs by MTT assay relative to DMSO
Format: functional
Residues, ends and D or L forms follow the SMILES beside them. *: point of attachment. Cbz = O=C(OCc1ccccc1)*

{"columns": ["Compound", "fold change (FC)"],
 "data": [
  ["CNc1cc2c(Nc3cccc(Br)c3)ncnc2cn1", 1.022],
  ["CN1CC(=O)N2[C@H](c3ccc4c(c3)OCO4)c3[nH]c4ccccc4c3C[C@@H]2C1=O", 1.052],
  ["Ic1cccc(CSc2nnc(-c3ccncc3)o2)c1", 1.095],
  ["CC(C)C[C@@H](C=O)NC(=O)[C@H](CC(C)C)NC(=O)[C@H](CC(C)C)NC(=O)OCc1ccccc1 [MG-132] (Cbz-Leu-Leu-Leu-aldehyde)", 0.255],
  ["CCCc1nc(C)c2c(=O)nc(-c3cc(S(=O)(=O)N4CCN(CC)CC4)ccc3OCC)[nH]n12", 1.058],
  ["O=C(Nc1ccc([N+](=O)[O-])cc1Cl)c1cc(Cl)ccc1O [NICLOSAMIDE]", 0.408],
  ["CCCc1nn(C)c2c(=O)[nH]c(-c3cc(S(=O)(=O)N4CCN(C)CC4)ccc3OCC)nc12", 1.037]
]}
